# system_tested: human DPP1 enzyme (Homo sapiens, UniProt P53634)
# experiment: Human DPP1 Enzyme IC50 Assay
# Type: biochemical
# Parameters: was first proteolytically processed into its mature form using recombinant human cathepsin L; purchased R&D Systems
# test_settings: activated recombinant human DPP1, 400 μM H-Gly-Arg-AMC, 10 minutes pre-incubation at 37° C., pH 6.0; average of n runs; read-out: Avg. IC50 (Human DPP1 enzyme IC50 value ranges)
# Sequence (P53634 25-134 limits assumed): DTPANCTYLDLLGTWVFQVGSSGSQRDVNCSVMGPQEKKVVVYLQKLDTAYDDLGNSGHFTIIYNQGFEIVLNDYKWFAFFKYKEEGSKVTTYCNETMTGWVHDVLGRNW
# Sequence (P53634 231-394 limits assumed): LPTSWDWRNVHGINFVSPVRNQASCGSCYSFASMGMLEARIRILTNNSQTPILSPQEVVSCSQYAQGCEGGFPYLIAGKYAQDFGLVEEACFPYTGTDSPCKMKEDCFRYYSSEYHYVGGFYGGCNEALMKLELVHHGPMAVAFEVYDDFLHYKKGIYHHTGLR
# Sequence (P53634 395-463 limits assumed): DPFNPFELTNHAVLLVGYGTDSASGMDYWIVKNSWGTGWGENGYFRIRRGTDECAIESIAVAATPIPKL
pIC50: −log10 of the molar value.
experimental_readout: pIC50

Qu. Sample CO[C@@H]1CCNC[C@@H](C(=O)N[C@H](C#N)Cc2ccc(-c3ccc4c(n3)CCCN4)cc2F)OC1 [Compound A50] — what was its pIC50?
Ans. > 8.30

Qu. Requested field: pIC50. Item: Cc1ncc(C)n2cc(-c3ccc(C[C@@H](C#N)NC(=O)[C@@H]4CNCCCCO4)cc3)cc12 [Compound A137]
Ans. < 7.82

Qu. Reported pIC50, molecule CN1C(=O)C2(CCNCC2)c2cc(-c3ccc(C[C@@H](C#N)NC(=O)[C@@H]4CNCCCO4)cc3)ccc21 [Compound 23] : ____
Ans. 7.82 to 8.30

Qu. Which pIC50 value is on record for N#C[C@H](Cc1ccc(-c2ccc(C(F)(F)F)cc2)cc1)NC(=O)[C@@H]1CNCCCO1 [Compound 12] ?
Ans. < 7.82

---
Qu. Which pIC50 reading was recorded for the molecule N#C[C@H](Cc1ccc(-c2cnn([C@@H]3CCOC3)c2)cc1)NC(=O)[C@@H]1CNCCCO1 [Compound D4] ?
Ans. < 7.82

Qu. Quick check: pIC50 of Cc1sc(-c2ccc(C[C@@H](C#N)NC(=O)[C@@H]3CNCCCO3)cc2)nc1-c1cc[nH]c(=O)c1 [Compound D9] ?
Ans. < 7.82

Qu. Given the entry CO[C@H]1CCO[C@H](C(=O)N[C@H](C#N)Cc2ccc(-c3ccc4c(c3)CCC(=O)N4C)cc2F)CNC1 [Compound A153] , report its measured pIC50.
Ans. > 8.30

Qu. Query (molecule): N#C[C@H](Cc1ccc(-c2ccc3c(c2)N(C(N)=O)CCC3)cc1)NC(=O)[C@@H]1CNCCCO1 [Compound A20] ; field requested: pIC50
Ans. < 7.82

Qu. Return reported pIC50; argument: CO[C@H]1CCO[C@H](C(=O)N[C@H](C#N)Cc2ccc(-c3ccc4c(c3)CCC(=O)N4C)cc2)CNC1 [Compound A147]
Ans. 7.82 to 8.30

----------
# system_tested: DPP1 in HL-60 cells (Homo sapiens, UniProt P53634)
# experiment: DPP1 Cell IC50 assay
# Format: cell-based
# Design: host or cells: HL-60 cells
# test_settings: 60 min pre-incubation, H-Gly-Phe-AFC substrate, average of n runs, read-out: Avg. IC50 (DPP1 Cell IC50 value ranges)
pIC50: −log10 of the molar value.
// reported pIC50 per item

Qu. Consider the compound shown here: CO[C@H]1CNC[C@@H](C(=O)N[C@H](C#N)Cc2ccc(-c3cc4c(C)nc(C)cn4c3)cc2F)OC1 What is its recorded pIC50?
Ans. > 9.00

Qu. What value of pIC50 has been reported for the following compound? N#C[C@H](Cc1ccc(-c2ccc(C(F)(F)F)cc2)cc1)NC(=O)[C@@H]1CNCCCO1
Ans. < 8.60

----------
# system_tested: human DPP1 enzyme (Homo sapiens)
# experiment: Human DPP1 Enzyme Single-Point Percent Inhibition Testing (HL-60 lysate)
# Format: biochemical
# Design: A crude lysate of HL-60 cells (ATCC; Manassas, VA) was used as a source of human DPP1 enzyme; host or cells: HL-60 cells (crude lysate)
# test_settings: final compound concentration of 10 nM, 400 μM H-Gly-Arg-AMC, n = 1
# Sequence (P53634 25-463): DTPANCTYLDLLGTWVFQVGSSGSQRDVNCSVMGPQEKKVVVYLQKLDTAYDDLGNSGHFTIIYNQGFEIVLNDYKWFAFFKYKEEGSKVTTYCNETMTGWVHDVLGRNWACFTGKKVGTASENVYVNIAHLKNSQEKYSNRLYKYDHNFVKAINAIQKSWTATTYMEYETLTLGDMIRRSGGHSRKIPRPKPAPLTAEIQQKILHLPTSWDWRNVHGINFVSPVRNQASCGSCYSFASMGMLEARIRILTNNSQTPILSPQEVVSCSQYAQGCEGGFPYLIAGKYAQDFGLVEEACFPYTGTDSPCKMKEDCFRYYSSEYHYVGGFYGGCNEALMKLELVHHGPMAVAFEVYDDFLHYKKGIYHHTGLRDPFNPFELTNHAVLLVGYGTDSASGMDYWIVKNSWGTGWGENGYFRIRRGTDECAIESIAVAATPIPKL
experimental_readout: inhibition at 0.01 µM

Qu. Which measured inhibition at 0.01 µM value corresponds to CO[C@H]1CCO[C@H](C(=O)N[C@H](C#N)Cc2ccc(-c3ccc4c(c3)C3(CCN(C5COC5)CC3)OC4)cc2)CNC1 [Compound F22] ?
Ans. 40 to 66.7%

Qu. Endpoint output: inhibition at 0.01 µM of Cc1cn2cc(-c3ccc(C[C@@H](C#N)NC(=O)[C@@H]4CN[C@@H](C)[C@H](O)CO4)cc3)cc2c(C)n1 [Compound A98] . Value?
Ans. ≥ 66.7%

Qu. Endpoint output: inhibition at 0.01 µM of CO[C@@H]1CCNC[C@@H](C(=O)N[C@H](C#N)Cc2ccc(-c3cc4c(C)nc(C)c(C)n4c3)cc2)OC1 [Compound A123] . Value?
Ans. ≥ 66.7%

Qu. Dear colleague, I am looking for the recorded inhibition at 0.01 µM of the following molecule: Cc1ncc(C)n2cc(-c3ccc(C[C@@H](C#N)NC(=O)[C@@H]4CN[C@@H](C)[C@@H](O)CO4)cc3)cc12 [Compound A134]
Ans. 40 to 66.7%

Qu. Field request: inhibition at 0.01 µM | item: C[C@@H]1NC[C@@H](C(=O)N[C@H](C#N)Cc2ccc(-c3ccc4cnn(C5CCN(C)CC5)c4c3)cc2F)OC[C@@H]1O [Compound H28]
Ans. ≥ 66.7%

Qu. I'd like to know its inhibition at 0.01 µM. The molecule in question is CO[C@@H]1CCNC[C@@H](C(=O)NC(C#N)Cc2cc3c(cc2F)-c2cc(C#N)ccc2CO3)OC1 (stereo partly shown) [Compound B21]
Ans. ≥ 66.7%

Qu. What does the record list as inhibition at 0.01 µM for CO[C@@H]1CCNC[C@@H](C(=O)N[C@H](C#N)Cc2ccc(-c3ccc4c(n3)CCCN4)cc2F)OC1 [Compound A83] ?
Ans. ≥ 66.7%

----------
# system_tested: human DPP1 enzyme (Homo sapiens)
# experiment: Human DPP1 Enzyme IC50 Assay
# Assay type: biochemical
# Parameters: was first proteolytically processed into its mature form using recombinant human cathepsin L; purchased R&D Systems
# test_settings: activated recombinant human DPP1, 400 μM H-Gly-Arg-AMC, 10 minutes pre-incubation at 37° C., pH 6.0; average of n runs; read-out: Avg. IC50 (Human DPP1 enzyme IC50 value ranges)
Below: a set of entries, each annotated with reported IC50.

Solved cases below.
Qu. Requested read-out IC50, target or system human DPP1 enzyme (Homo sapiens), entry Cn1c(=O)oc2ccc3c(c21)COc1cc(CC(C#N)NC(=O)[C@@H]2CNCCCO2)c(F)cc1-3 (mixture of isomers) [Compound C2]
Ans. > 15 nM

Qu. Identify the measured IC50 of N#C[C@H](Cc1ccc(-c2ccc3c(c2)[C@@]2(CCN(C4COC4)C2)COC3)cc1)NC(=O)[C@@H]1CNCCCO1 [Compound I6] for human DPP1 enzyme (Homo sapiens).
Ans. 5 to 15 nM

Qu. // fetch human DPP1 enzyme (Homo sapiens) IC50 for Cn1c(=O)oc2ccc3c(c21)COc1cc(C[C@H](C#N)NC(=O)[C@@H]2CNCCCO2)c(F)cc1-3 [Compound C2-B]
Ans. > 15 nM

Qu. Record lookup: for human DPP1 enzyme (Homo sapiens), what IC50 belongs to CO[C@@H]1CCNC[C@@H](C(=O)N[C@H](C#N)Cc2ccc(-c3ccc4c(n3)CCCN4)cc2)OC1 [Compound A33] ?
Ans. < 5 nM

Qu. Please state recorded IC50 (tested on human DPP1 enzyme (Homo sapiens)) of N#Cc1ccc2c(c1)CSc1cc(C[C@@H](C#N)NC(=O)[C@@H]3CNCCCCO3)c(F)cc1-2 [Compound B17]
Ans. 5 to 15 nM

Qu. Observed IC50 on human DPP1 enzyme (Homo sapiens) for N#C[C@H](Cc1ccc(-c2ccc(S(=O)(=O)N3CCC3)cc2)cc1)NC(=O)[C@@H]1CNCCCO1 [Compound 19] , please.
Ans. > 15 nM

Proceed to the following item.
Qu. Query IC50 on human DPP1 enzyme (Homo sapiens) for CO[C@H]1CCO[C@H](C(=O)N[C@H](C#N)Cc2ccc(-c3ccc4c(F)nn(C)c4c3)cc2F)CNC1 [Compound A165]
Ans. 5 to 15 nM

----------
# system_tested: human DPP1 enzyme (Homo sapiens)
# experiment: Human DPP1 Enzyme Single-Point Percent Inhibition Testing (HL-60 lysate)
# Type: biochemical
# Design: A crude lysate of HL-60 cells (ATCC; Manassas, VA) was used as a source of human DPP1 enzyme; host or cells: HL-60 cells (crude lysate)
# test_settings: final compound concentration of 10 nM, 400 μM H-Gly-Arg-AMC, n = 1
Listed below: inhibition at 0.01 µM values for each entry.

Qu. Field request: inhibition at 0.01 µM | item: Cn1c(=O)oc2cc3c(cc21)-c1cc(F)c(CC(C#N)NC(=O)[C@@H]2CNCCCO2)cc1OC3 (stereo partly shown)
Ans. ≥ 66.7%

More entries:
Qu. // returns reported inhibition at 0.01 µM for input CO[C@H]1CCO[C@H](C(=O)N[C@H](C#N)Cc2ccc(-c3ccc4c(c3)C3(CC4)CCN(C)CC3)cc2)CNC1
Ans. ≥ 66.7%

Qu. Please report the recorded inhibition at 0.01 µM for N#C[C@H](Cc1ccc(-c2ccc(S(=O)(=O)N3CCC3)cc2)cc1F)NC(=O)[C@@H]1CNCCCCO1 .
Ans. ≤ 40%

Qu. // query inhibition at 0.01 µM value for entry CO[C@@H]1CCNC[C@@H](C(=O)N[C@H](C#N)Cc2ccc(-c3cc4c(C)nc(C)cn4c3)cc2)OC1
Ans. ≥ 66.7%

Qu. Which inhibition at 0.01 µM value belongs to N#C[C@H](Cc1ccc(-c2ccn3ccnc3c2)cc1)NC(=O)[C@@H]1CNCCCO1 ?
Ans. ≤ 40%

Qu. Need inhibition at 0.01 µM of CO[C@@H]1CCNC[C@@H](C(=O)N[C@H](C#N)Cc2ccc(-c3ccc4c(c3)C3(CC4)CCN(C)CC3)cc2F)OC1 , thanks.
Ans. ≥ 66.7%

Qu. Quick check: inhibition at 0.01 µM of N#C[C@H](Cc1ccc(-c2ccc(S(=O)(=O)N3CCC3)cc2)cc1)NC(=O)[C@@H]1CNCCCCO1 ?
Ans. ≤ 40%

Qu. What value of inhibition at 0.01 µM has been recorded for this entry: CN1CCCC2(C1)C(=O)N(C)c1ccc(-c3ccc(C[C@@H](C#N)NC(=O)[C@@H]4CNCCCCO4)c(F)c3)cc12 (stereo partly shown)
Ans. 40 to 66.7%

Qu. Form field: reported inhibition at 0.01 µM of COC1CNC[C@@H](C(=O)N[C@H](C#N)Cc2ccc(-c3ccc4nnn(C)c4c3)cc2)OC1 (stereo partly shown)
Ans. ≥ 66.7%

Qu. Could you tell me which inhibition at 0.01 µM is on file for CO[C@H]1CCO[C@H](C(=O)N[C@H](C#N)Cc2ccc(-c3ccn4ccnc4c3)cc2)CNC1 ?
Ans. ≤ 40%
